# Subject Of Test: GST(1-218)-(FACTOR_XA)-hsBCLXL(2-209) (Homo sapiens (Human), UniProt Q07817)
# Sequence (Q07817 other isoform, or with tags, fused parts or gaps): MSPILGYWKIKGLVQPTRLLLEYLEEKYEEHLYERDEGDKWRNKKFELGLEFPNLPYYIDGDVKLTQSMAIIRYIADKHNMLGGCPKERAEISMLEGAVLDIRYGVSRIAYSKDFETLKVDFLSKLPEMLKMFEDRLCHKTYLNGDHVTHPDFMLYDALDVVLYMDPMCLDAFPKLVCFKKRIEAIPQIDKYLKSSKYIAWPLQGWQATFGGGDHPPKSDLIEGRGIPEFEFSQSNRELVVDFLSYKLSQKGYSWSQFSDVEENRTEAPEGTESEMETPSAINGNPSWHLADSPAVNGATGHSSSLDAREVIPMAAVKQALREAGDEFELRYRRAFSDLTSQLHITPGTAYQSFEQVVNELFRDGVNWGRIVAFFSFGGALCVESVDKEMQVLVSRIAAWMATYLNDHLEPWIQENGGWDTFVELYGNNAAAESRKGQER
pKi: −log10 of the molar value.
Classification field: enter Satisfied for pKi values not below 5, Not satisfied for values below it.

Cc1c(Nc2nc3ccccc3s2)nnc2c1CCCCN2c1nc(C(=O)O)c(CCCOc2ccc(C#CCN(C)C)cc2F)s1 [Example 31]; Satisfied
O=C(O)c1csc(N2CCc3cc(Nc4nc5ccccc5s4)nnc32)n1 [Example 10]; Satisfied

Asked: Does the compound O=C(O)c1csc(N2CCOc3cc(Nc4nc5ccccc5s4)ccc32)n1 [Example 4] have recorded pKi that is 5 or more?
Given back: Not satisfied

Asked: Does the compound Cc1c(Nc2nc3ccccc3s2)nnc2c1CCCN2c1cccc(C(=O)O)c1 [Example 26] have recorded pKi that is 5 or more?
Given back: Not satisfied

Asked: Does the compound O=C(O)c1csc(N2CCc3cc(Nc4nc5ccccc5s4)ccc32)n1 [Example 3] have recorded pKi that is 5 or more?
Given back: Not satisfied

Asked: Does the compound COCCCC1(Cn2ncc(-c3sc(N4CCc5c4nnc(Nc4nc6ccccc6s4)c5C)nc3C(=O)O)c2C)CCCCC1 [Example 17] have recorded pKi that is 5 or more?
Given back: Satisfied

Asked: Does the compound CNCC#Cc1ccc(OCCCc2sc(N3CCCc4c3nnc(Nc3nc5ccccc5s3)c4C)nc2C(=O)O)c(F)c1 [Example 32] have recorded pKi that is 5 or more?
Given back: Satisfied

Asked: Does the compound Cc1nc(Nc2nnc3c(c2C)CCN3c2nc(C(=O)O)cs2)sc1C [Example 19] have recorded pKi that is 5 or more?
Given back: Satisfied

* * *

# Subject Of Test: His-His-(EK)-hsBCLXL(2-197)[N197C] (Homo sapiens (Human), UniProt Q07817, N197C)
# Sequence (Q07817 2-197 N197C): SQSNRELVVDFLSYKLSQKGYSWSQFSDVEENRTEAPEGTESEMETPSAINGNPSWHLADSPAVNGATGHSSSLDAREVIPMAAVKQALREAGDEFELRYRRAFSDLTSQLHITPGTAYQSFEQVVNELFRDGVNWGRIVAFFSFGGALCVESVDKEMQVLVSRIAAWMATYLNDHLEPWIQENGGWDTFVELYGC
# Assay Details: Fluorescence quenching assay
# Condition: 1 nM Cy5-labelled protein, 400 nM PUMA peptide, 2 hours at 23° C.; KI determined from IC50
Examples of molecules with documented pKi follow.
# reply with the number alone; pKi is -log10 of concentration in mol/L

Recorded results for 5 molecules are shown here.
Cc1c(Nc2nc3ccccc3s2)nnc2c1C[C@@H](O)CN2c1nc(C(=O)O)cs1; 8.85
Cc1c(Nc2nc3ccccc3s2)nnc2c1CCCCN2c1nc(C(=O)O)c(CCCOc2ccc(C#CCN(C)C)cc2F)s1; 11.09
Cc1c(Nc2nc3ccccc3s2)nnc2c1CCCN2c1nc(C(=O)O)c(CCCOc2ccc(OCCN(C)C)cc2)s1; 11.82
Cc1c(Nc2nc3ccccc3s2)nnc2c1CCCN2c1nc(C(=O)O)c(CCCOc2ccc(C#CCN3C[C@@H]4[C@H](C3)C4(F)F)cc2F)s1; 10.09
Cc1c(Nc2nc3ccccc3s2)nnc2c1CCCN2c1nc(C(=O)O)c(CCCOc2ccc(C#CCNCCN(C)C)cc2F)s1; 11.74

Asked: Look at this molecule and give its reported pKi. `Cc1c(Nc2nc3ccccc3s2)nnc2c1CCCN2c1nc(C(=O)O)c(CCCOc2ccc(C#CCN(CC[C@H](O)CO)CC[C@H](O)CO)cc2F)s1`
Given back: 11.17

Asked: Look at this molecule and give its reported pKi. `Cc1c(Nc2nc3ccccc3s2)nnc2c1CCCN2c1nc(C(=O)O)c(CCCOc2ccc(CCN(C)C)cc2F)s1`
Given back: 11.18

Asked: Look at this molecule and give its reported pKi. `Cc1c(Nc2nc3ccccc3s2)nnc2c1CCCN2c1nc(C(=O)O)c(CCCOc2cc3c(cc2F)CN(C)CC3)s1`
Given back: 11.00

Asked: Look at this molecule and give its reported pKi. `Cc1c(Nc2nc3ccccc3s2)nnc2c1CCCN2c1ccc(-c2cnn(CC34CC5(C)CC(C)(C3)CC(OCCN(C)CCO)(C5)C4)c2C)c(C(=O)O)n1`
Given back: 11.82
